# ASSAY TARGET: tubulin with MAPs (Bos taurus, UniProt P81947+Q6B856)
# Sequence (P81947 whole entry): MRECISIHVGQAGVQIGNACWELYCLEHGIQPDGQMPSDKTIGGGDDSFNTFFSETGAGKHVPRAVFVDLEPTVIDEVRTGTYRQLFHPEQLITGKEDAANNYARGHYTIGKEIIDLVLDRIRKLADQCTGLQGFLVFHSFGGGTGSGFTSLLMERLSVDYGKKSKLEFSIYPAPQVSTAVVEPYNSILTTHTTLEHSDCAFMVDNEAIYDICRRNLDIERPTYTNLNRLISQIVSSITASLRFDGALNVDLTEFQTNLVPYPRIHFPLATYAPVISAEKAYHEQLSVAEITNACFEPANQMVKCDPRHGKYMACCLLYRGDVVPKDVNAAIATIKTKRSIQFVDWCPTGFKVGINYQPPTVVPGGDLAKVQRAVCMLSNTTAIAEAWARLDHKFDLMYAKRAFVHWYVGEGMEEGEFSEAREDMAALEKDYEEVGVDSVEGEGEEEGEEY
# Sequence (Q6B856 whole entry): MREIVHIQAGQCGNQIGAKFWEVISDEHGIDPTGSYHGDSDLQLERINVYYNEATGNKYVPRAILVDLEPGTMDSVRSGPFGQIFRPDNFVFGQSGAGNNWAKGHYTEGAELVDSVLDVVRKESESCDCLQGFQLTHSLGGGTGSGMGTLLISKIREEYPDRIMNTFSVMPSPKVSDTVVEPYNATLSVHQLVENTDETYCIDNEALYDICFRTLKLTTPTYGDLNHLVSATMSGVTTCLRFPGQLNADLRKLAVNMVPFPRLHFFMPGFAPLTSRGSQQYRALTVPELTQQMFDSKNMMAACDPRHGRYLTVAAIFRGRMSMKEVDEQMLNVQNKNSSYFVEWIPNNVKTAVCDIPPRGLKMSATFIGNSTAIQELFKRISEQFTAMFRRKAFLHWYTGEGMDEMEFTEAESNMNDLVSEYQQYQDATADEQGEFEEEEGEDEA
# PROCEDURE DETAILS: Paclitaxel-induced tubulin assembly with heat-treated MAPs
pIC50: −log10 of the molar value.
The entries below come with measured pIC50 values attached.

COc1cc2cc(c1Cl)N(C)C(=O)C[C@H](OC(=O)[C@H](C)N(C)C(C)=O)[C@]1(C)O[C@H]1[C@H](C)[C@@H]1C[C@@](O)(NC(=O)O1)[C@H](OC)/C=C/C=C(\C)C2 [maytansine] : > 5.30

Okay, now this compound:
Given the entry COc1cc([C@@H]2c3cc4c(cc3[C@H](O)[C@H]3COC(=O)[C@H]23)OCO4)cc(OC)c1OC [podophyllotoxin, Podophyllotoxin] , report its measured pIC50. > 5.30
